Cited source: patent US20200270125A1

Target: T1, human MASP-3 (construct not stated) (human)
T1 construct: also called MASP-3 antigen
T1 chain: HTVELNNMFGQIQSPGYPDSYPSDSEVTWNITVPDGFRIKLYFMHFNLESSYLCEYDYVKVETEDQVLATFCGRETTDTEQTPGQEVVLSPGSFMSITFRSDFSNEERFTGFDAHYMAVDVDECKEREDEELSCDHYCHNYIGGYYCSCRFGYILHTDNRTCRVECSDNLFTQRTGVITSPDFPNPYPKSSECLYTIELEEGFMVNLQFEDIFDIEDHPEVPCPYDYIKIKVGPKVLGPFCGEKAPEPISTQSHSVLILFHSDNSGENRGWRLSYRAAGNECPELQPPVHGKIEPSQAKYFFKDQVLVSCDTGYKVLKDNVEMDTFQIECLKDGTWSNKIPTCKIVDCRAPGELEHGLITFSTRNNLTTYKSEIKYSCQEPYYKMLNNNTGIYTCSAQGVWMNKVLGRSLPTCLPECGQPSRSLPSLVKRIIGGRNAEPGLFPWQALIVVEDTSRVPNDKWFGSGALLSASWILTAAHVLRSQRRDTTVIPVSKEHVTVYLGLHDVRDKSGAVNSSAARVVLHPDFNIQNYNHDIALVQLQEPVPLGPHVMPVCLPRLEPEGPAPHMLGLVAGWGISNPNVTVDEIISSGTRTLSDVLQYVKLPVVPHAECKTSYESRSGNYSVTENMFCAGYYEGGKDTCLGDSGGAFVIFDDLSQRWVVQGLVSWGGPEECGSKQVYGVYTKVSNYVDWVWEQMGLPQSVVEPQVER
Experiment: not described at this place

binder	binding affinity
MASP-3 mAb 4B6 (mouse-human chimeric IgG4) (antibody, V domains shown) VH: QVQLKQSGPELVKPGASVKLSCKASGYTFTSNDINWVKQRPGQGLEWIGWIYPRDGTTKYNEEFTDKATLTVDVSSSTAFMELHSLTSEDSAVYFCSSVEDSYWGQGTLVTVSS VL: DIVMTQSPSSLAVSAGEKVTMSCKSSQSLLISRTRKNYLSWYQQKPGQSPKLLIYWASTRESGVPDRFTGSGSGTDFTLTISSVQAEDLAVYYCKQSYNLYTFGGGTKLEIKR	≤ 500 pM
MASP-3 mAb 1F3 (mouse-human chimeric IgG4) (antibody, V domains shown) VH: QVQLKQSGPELVKPGASVKLSCKASGYTFTSNDINWVKQRPGQGLEWIGWIYPRDGSIKYNEKFTDKATLTVDVSSSTAYMELHSLTSEDSAVYFCSGVEDSYWGQGTLVTVSS VL: DIVMTQSPSSLAVSAGERVTMSCKSSQSLLISRTRKNYLSWYQQKPGQSPKLLIYWASTRESGVPDRFTGSGSGTDFTLTISSVQAEDLAVYYCKQSYNLYTFGGGTKLEIKR	≤ 500 pM
MASP-3 mAb 15D9 (mouse-human chimeric IgG4) (antibody, V domains shown) VH: QVQLKQSGTELMKPGASVNLSCKASGYTFTAYWIEWVKQRPGHGLEWIGEILPGSGTTNYNENFKDRATFTADTSSNTAYMQLSSLTSEDSAIYYCARSYYYASRWFAFWGQGTLVTVSS VL: DIVMTQSQKFMSTSIGDRVSVTCRASQNVGPNLAWYQQKPGQSPKALIYSASYRFSGVPDRFTGSGSGTDFTLTISNVQSEDLAEYFCQQYNRYPFTFGSGTKLEIKR	≤ 500 pM
